Below, each of the compounds is paired with its reported Emax value.
subject-of-test: human GLP-1R (Homo sapiens (Human), UniProt P43220, L260F)
Sequence (P43220 24-463 L260F): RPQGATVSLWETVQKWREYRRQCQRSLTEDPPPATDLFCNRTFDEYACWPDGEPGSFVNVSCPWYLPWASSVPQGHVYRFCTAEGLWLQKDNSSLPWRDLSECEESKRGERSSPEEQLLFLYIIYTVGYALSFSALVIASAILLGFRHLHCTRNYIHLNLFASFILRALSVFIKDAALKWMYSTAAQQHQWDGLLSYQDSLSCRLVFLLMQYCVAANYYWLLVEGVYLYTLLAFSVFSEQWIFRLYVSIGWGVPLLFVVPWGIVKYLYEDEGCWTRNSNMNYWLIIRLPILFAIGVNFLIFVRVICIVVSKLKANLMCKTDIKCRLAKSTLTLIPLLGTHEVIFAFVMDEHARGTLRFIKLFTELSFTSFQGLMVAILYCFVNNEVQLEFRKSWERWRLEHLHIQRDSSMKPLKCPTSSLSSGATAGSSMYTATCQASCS
assay-overview: CHO GLP-1R Clone C6—Assay 2: HTRF cAMP cell-based functional agonist assay (low GLP-1R density)
condition-description: CHO GLP-1R Clone C6; relative to saturating concentration of full agonist GLP-1 (1 μM); arithmetic mean; read-out: Assay 2 Emax (%)
# number only, unit % dropped from output

Here's what some known entries look like.
* O=C(O)c1ccc2nc(CN3CCC(c4cccc(OCc5ccc(Cl)cc5F)n4)CC3)n(CCn3cccn3)c2c1 [Example 11A-28] | 82
* CCn1cnnc1Cn1c(CN2CCC(c3cccc(OCc4ccc(Cl)cc4F)n3)CC2)nc2ccc(C(=O)O)cc21 [Example 10A-07] | 81
* C[C@H]1CN(c2cccc(OCc3ccc(C#N)cc3F)n2)CCN1Cc1nc2ccc(C(=O)O)nc2n1Cc1ncco1 [Example 2A-21] | 110
* Cc1noc(CCn2c(CN3CCC(c4cccc(OCc5ccc(Cl)cc5F)n4)CC3)nc3ccc(C(=O)O)cc32)n1 [Example 11A-29] | 99
* N#Cc1ccc(COc2cccc(C3CCN(Cc4nc5ccc(C(=O)O)cc5n4C[C@@H]4CCO4)CC3)n2)cc1 [Example 10A-78] | 88
* Cn1c(CN2CCC(c3cccc(OCc4ccc(Cl)cc4F)n3)CC2)nc2cnc(C(=O)O)cc21 [Example 2A-03] | 44

// below: Emax requested for another compound
Which Emax is listed for Cn1ncnc1Cn1c(CN2CCC(c3cccc(OCc4ccc(Cl)cc4F)n3)CC2)nc2ccc(C(=O)O)cc21 [Example 11A-33] ?
94
